Biological target: T1, human MSLN-FL-his protein (human, UniProt Q13421 296-580)
T1 construct: made in HEK293E cells, purified on nickel column; also called hMSLN-FL-his; human MSLN full-length protein; not shown: His tag
T1 sequence (Q13421 other isoform, or with tags, fused parts or gaps): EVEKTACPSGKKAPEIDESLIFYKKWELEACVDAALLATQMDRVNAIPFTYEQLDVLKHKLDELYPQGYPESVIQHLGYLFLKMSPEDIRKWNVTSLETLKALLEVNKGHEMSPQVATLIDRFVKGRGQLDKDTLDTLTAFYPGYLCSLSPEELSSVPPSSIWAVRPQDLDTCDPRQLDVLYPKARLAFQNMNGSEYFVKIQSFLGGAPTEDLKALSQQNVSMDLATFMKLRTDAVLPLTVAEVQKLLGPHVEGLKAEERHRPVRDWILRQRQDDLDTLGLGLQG
Assay: SPR (Biacore), antibody captured on Protein A chip;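 further: flow cell at 25 °C, antigen injected for 240 s at five concentrations from 200 nM downward, dissociation followed up to 600 s, double-referenced, fitted with Langmuir 1:1 model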
Measure name: Kd (nM)
A number alone suffices; assume nM.

>>> readout_value("S009-F8-22.23 (antibody, human IgG1, kappa, V domains shown, human-murine chimeric antibody, human IgG1/kappa constant regions) VH: QVQLKQSGPGLVQPSQSLSITCTVSGFSLFSYGVHWVRQSPGKGLEWLGVIWSGGSTDYNAAFISRLSISKDNSKSQVFFKMNSLQADDTAMYYCARNGGSMITTLYYAMDYWGQGTSVTVSS VL: DVVMTQTPLSLPVSLGDQASISCRSSQSLVHSYGNTYLHWYLQKPGQSPKLLIYKVSNRFSGVPDRFSGSGSGTDFTLKISRVEAEDLGVYFCSQSTHIPFTFGGGTKLEIKR")
6.35

# lookup: Kd of S009-F8-18.9 (antibody, human IgG1, kappa, V domains shown, human-murine chimeric antibody, human IgG1/kappa constant regions) VH: EFQLQQSGPELVKPGASVKISCKASGYSFTDYNMNWVKQSNGKSLEWIGIINPNYGTTSYNQKFKGRATLTVDQSSSTAYVQLNSLTSEDSAVYYCARGGYDNEAMDYWGQGTSVTVSS VL: QIVLTQSPAIMSASPGEKVTMTCSASSSVSYMHWYQQKSGTSPKRWIYDTSKLASGVPARFSGSGSGTSYSLTISSMEAEDAATYYCQQWSSNPPTFGAGTKLELKR
3.17

Repeat for the following binder: S009-F7.25.19 (antibody, human IgG1, kappa, V domains shown, human-murine chimeric antibody, human IgG1/kappa constant regions) VH: QVQLQQPGTELVKPGASVKLSCKASGYTFTSYWMHWVKQRPGQGLEWIGNIIPSNGGTKYNEKFKSKATLTVDKSSSTAYMQLSSLTSEDSAVYYCSPHYYGGSPGFAYWGQGTLITVSA VL: DIVMTQSQKFMSTSVGDRVSVICKASQNVGTNVAWYQQKPGQSPKALIYSASYRYSGVPDRFTGSGSGTDFTLTISNVQSEDLAEYFCQQYNSYPLTFGGGTKLEIKR
2.71
